Cited source for all entries: patent US11851389B2

# protocol_text: LNP size distribution, PDI and ζ potential by dynamic light scattering
# Type: physicochemical
# settings: LNP-siRNA formulations, DLS
reported_property: Size (d · nm)
Just the number in nm, nothing appended.

{"compound": "CCCCC/C=C\\C/C=C\\CCCCCCCCNN(CCCCCCCC/C=C\\C/C=C\\CCCCC)CCN(C)C [Lipid 1]", "Size (d · nm)": 45.1}
{"compound": "CCCCC/C=C\\C/C=C\\CCCCCCCCNN(CCCCCCCC/C=C\\C/C=C\\CCCCC)CCCCN(C)C [Lipid 2]", "Size (d · nm)": 56.3}
{"compound": "CCCCC/C=C\\C/C=C\\CCCCCCCCN(CCCCCCCC/C=C\\C/C=C\\CCCCC)CCOC(=O)CCCN(C)C [Lipid 38]", "Size (d · nm)": 59.0}

Form field: reported Size (d · nm) of CCCCC/C=C\C/C=C\CCCCCCCCC(CCCCCCCC/C=C\C/C=C\CCCCC)OC(=O)CCCN(C)C [Dlin-MC3-DMA, reference compound]
44.5

Form field: reported Size (d · nm) of CCCCC/C=C\C/C=C\CCCCCCCCN(CCCCCCCC/C=C\C/C=C\CCCCC)NC(=O)CCCN(C)C [Lipid 10]
50.5

Form field: reported Size (d · nm) of CCCCC/C=C\C/C=C\CCCCCCCCN(CCCCCCCC/C=C\C/C=C\CCCCC)OC(=O)Cc1c[nH]cn1 [Lipid 33]
46.0

Form field: reported Size (d · nm) of CCCCC/C=C\C/C=C\CCCCCCCCN(CCCCCCCC/C=C\C/C=C\CCCCC)OC(=O)CN(C)C [Lipid 9]
75.1
